Cited source: ChEMBL document CHEMBL1201862

Record form. Attribute: GI50. Fill in for each entry.
- System: SK-MEL-28
- protocol_notes: NCI tumour cell line growth inhibition, 48 h
Calls of active or inactive are those of the source. Rule as the data show it: active = GI50 up to about 1.1 µM and inactive = higher.

CN1CCN(CCCN2c3ccccc3Sc3ccc(C(F)(F)F)cc32)CC1
1.66 µM (inactive)
COc1ccccc1/N=N/C(=N/NC(=O)c1ccc(C)cc1)c1ccc(N(CCC#N)CCC#N)cc1OC
36 µM (inactive)
COC(=N)c1csc(C2OC(CO)C(O)C2O)n1 (stereo not given)
> 100 µM (inactive)
C[C@@H]1CCC2[C@@H](C)[C@H](O[C@H]3O[C@@H]4O[C@@]5(C)CCC6[C@H](C)CCC([C@H]3C)[C@]64OO5)O[C@@H]3O[C@@]4(C)CCC1[C@@]23OO4 (stereo not given in full)
5.69 µM (inactive)
O=S(=O)(Nc1ccc2ccc3cccc4ccc1c2c34)c1ccccc1
> 100 µM (inactive)

For the 4 molecules below, give their GI50 values.
1. CCOC(=O)C(O)(CC1=NC(C(=O)OC)(C(=O)OC)C(c2cccc(C=O)c2)O1)C(=O)OCC (stereo not given)
2. Cc1ccc2ccc3ccc(C)nc3c2n1
3. COC(=O)C1(C(=O)OC)N=C(C)OC1c1ccccn1 (stereo not given)
4. CC1(C)C(=O)/C=C\C(=O)C(C)(C)C(=O)/C=C\C(=O)C(C)(C)C(=O)/C=C\C(=O)C(C)(C)C(=O)/C=C\C1=O

Result:
1. > 100 µM (inactive)
2. > 100 µM (inactive)
3. > 100 µM (inactive)
4. 26.5 µM (inactive)

Query: Query (molecule): COc1ccc(-c2cc(=O)c3c(O)c(OC)c(OC)c(OC)c3o2)cc1OC ; field requested: GI50
Result: > 100 µM (inactive)
